tested on: OVCAR-3 ovarian; test: NCI-60 one-dose screen, 48 h (100 = growth as untreated, 0 = no growth, -100 = all killed); details: 10 µM unless noted
Compounds without any hit were thinned out: in the full panel of roughly 83,000, 20% have a hit.

# molecule, target-or-system, unit-symbol, growth
data = [
    ("c1ccc(CNc2ncnc3ccc(-c4cnc5[nH]ncc5c4)cc23)cc1", "OVCAR-3 ovarian", "%", 67.1),
    ("CC(C)(C)Nc1nc2c(OCCc3ccccc3)cccn2c1-c1cccc(F)c1", "OVCAR-3 ovarian", "%", -0.703),
    ("O=C1NC(=C(Cl)Cl)/C(=N/S(=O)(=O)N2CCCCC2CC2(C(F)(F)F)N=N2)N1 (centres undefined)", "OVCAR-3 ovarian", "%", -15.1),
    ("C[C@@H]1CN(c2ccc3ncc(C#Cc4cncc(C(=O)Nc5ccc(CN6CCN(C)CC6)c(C(F)(F)F)c5)c4)n3n2)C[C@H](C)O1", "OVCAR-3 ovarian", "%", -48.3),
    ("CS(=O)(=O)c1ccc(-n2cc(/C=C/C(=O)c3ccc(NC(=O)CO[N+](=O)[O-])cc3)c(-c3ccc(Cl)cc3)n2)cc1", "OVCAR-3 ovarian", "%", 111),
    ("COc1ccc(Cc2nn(CC(=O)N/N=C/c3ccc(Cl)cc3)c(=O)c3c(C)noc23)cc1", "OVCAR-3 ovarian", "%", 107),
    ("COc1ccc(C(=O)c2cc(C(=O)/C=C/c3c(Cl)cccc3Cl)c3cc(C)ccn23)cc1", "OVCAR-3 ovarian", "%", 103),
    ("O=C(CCCN1C(=O)/C(=C/c2ccccc2F)SC1=S)N1CCOCC1", "OVCAR-3 ovarian", "%", 112),
    ("Nc1cc(-c2c[nH]c3ccc(F)cc23)nc2cc(-c3c[nH]c4ccc(F)cc34)nn12", "OVCAR-3 ovarian", "%", 94.4),
]

----------
tested on: MALME-3M melanoma; assay: NCI-60 one-dose screen, 48 h (100 = growth as untreated, 0 = no growth, -100 = all killed); details: 10 µM unless noted
Compounds without any hit were thinned out: in the full panel of roughly 83,000, 20% have a hit.
Short version: growth at least 60% is 1 (yes), less is 0 (no).

# molecule, assigned-category
data = [
    ("N#Cc1c(-c2ccc(Cl)cc2)nc2c(-c3ccccc3)c(Nc3ccccc3)nn2c1N", "1 (yes)"),
    ("O=C(CCN1C(=O)/C(=C/c2ccccc2F)SC1=S)N1CCOCC1", "1 (yes)"),
    ("C[C@@H](Nc1c(C#N)cnc2ccc(-c3cnc(N)nc3)cc12)c1ccccc1", "0 (no)"),
    ("CCN(CC)c1ccc(C=O)c(OCc2cn(CC(=O)Nc3ccc(Cl)cc3)nn2)c1", "1 (yes)"),
    ("COC(=O)c1ccc(NC(=S)N2CCc3ccc([N+](=O)[O-])cc3C2)cc1O", "1 (yes)"),
    ("O=C(CSc1nc2sc3c(c2c(=O)n1-c1ccc(Cl)cc1)CCCC3)NNC(=O)Nc1cccc(C(F)(F)F)c1", "0 (no)"),
    ("CCN1C(=S)N(CC)C2C1N=C(SC)N2/N=C/C=C/c1ccccc1[N+](=O)[O-] (stereo not given)", "1 (yes)"),
    ("CC(=NNc1ncnc2ccccc12)c1ccc(S(C)(=O)=O)cc1", "1 (yes)"),
    ("NC(=O)c1c(NC(=O)c2ccc(C3CCCCC3)cc2)sc2c1CCC(=O)C2", "0 (no)"),
]

----------
System: SNB-75 CNS
Assay: NCI-60 one-dose screen, 48 h (100 = growth as untreated, 0 = no growth, -100 = all killed)
Settings: 10 µM unless noted
Method: Growth inhibition of the SNB-75 human tumor cell line is measured as a screen for anti-cancer activity. Cells are grown in 96 well plates and exposed to the test compound for 48 hours. Compounds are tested at a single concentration, which is 10^-5 M for most compounds. The reported endpoint is percent growth (GI% or GIPRCNT), where numbers from 0 - 100% represent growth inhibition, and numbers from -100% - 0 represent cell death. For example, a value of 40 represents 60% growth inhibition. […]
About 83,000 compounds went through this panel and 20% of them were active in at least one assay; those are over-represented in the sample as a whole.
Recorded growth by entry

# compound, growth [%]
measured = [
    ("O=C1C2=C(C(=O)c3c(O)cccc31)C(c1ccco1)c1sc(=O)[nH]c1S2 (stereo not drawn)", 32.4),
    ("CN(C)S(=O)(=O)c1oc(-c2ccccc2)nc1C#N", 96.1),
    ("COc1cccc(NC2=CC(=O)C(C)=C(C)C2=O)c1", 99.8),
    ("CC(=NNc1ncnc2ccccc12)c1ccc(S(C)(=O)=O)cc1", 103),
    ("CNC(=O)c1cc(-c2ccc(NC(=O)Nc3ccc(N4CCOCC4)c(C(F)(F)F)c3)cc2)nc2cccnc12", 67.6),
    ("Cc1ccc2ccc3ccc(C)nc3c2n1.Cc1ccc2ccc3ccc(C)nc3c2n1.Oc1c(Cl)cc(Cl)c2ccc(CN3CCCCC3)nc12.[Ru]", -71),
    ("COC(=O)C1CCCN(S(=O)(=O)/N=C2\\NC(=O)NC2=C(Cl)Cl)C1 (stereo not drawn)", 125),
    ("CC(=O)Oc1ccccc1C(=O)Nc1ccc(C(=O)/C=C/c2cccs2)cc1", 113),
]

----------
system: SF-295 CNS; experiment: NCI-60 one-dose screen, 48 h (100 = growth as untreated, 0 = no growth, -100 = all killed); conditions: 10 µM unless noted
This is part of a sample that, as a whole, favours compounds with a hit. Of some 83,000 tested, about 20% had one in any assay.
Short version: growth at least 80% is 1 (yes), less is 0 (no).

# compound, assigned-category
records = [
    ("COc1ccc(-c2nc3ccc(-c4nnc(SCC(=O)Nc5ccc(C(C)=O)cc5)o4)cc3[nH]2)cc1", "1 (yes)"),
    ("COc1ccc(-c2nc3ccc(-c4nnc(SCC(=O)Nc5ccc(C(=O)/C=C/c6ccccc6)cc5)o4)cc3[nH]2)cc1OC", "1 (yes)"),
    ("Cc1ccc(CNS(=O)(=O)/N=C2\\NC(=O)NC2=C(Cl)Cl)cc1", "0 (no)"),
    ("N[C@@H](Cc1cn(-c2c3ccccc3nc3ccccc23)nn1)C(=O)O", "1 (yes)"),
    ("NS(=O)(=O)c1cccc(Nc2nc(SCC(=O)c3ccc([N+](=O)[O-])cc3)nc3ccccc23)c1", "0 (no)"),
    ("COc1cc(/C=C/C(=O)c2cc(OC)c(OC)c(OC)c2)ccc1OCc1ccccc1", "0 (no)"),
    ("COC(=O)C1CCCN(S(=O)(=O)/N=C2\\NC(=O)NC2=C(Cl)Cl)C1 (configuration not stated)", "1 (yes)"),
    ("COc1ccc(NC2=C(Cl)C(=O)C(C)=C(C)C2=O)cc1OC", "1 (yes)"),
    ("Cc1cc2nc3c4cc(Cl)ccc4n(CC(=S)NCCN(C)C)c3nc2cc1C", "0 (no)"),
    ("CC(C)(C)OC(=O)N1C(=O)c2c(c3c4ccccc4[nH]c3c3ccc4ccccc4c23)C1=O", "0 (no)"),
    ("COc1ccc(-c2cc(C(=O)N=Nc3c(O)[nH]c4ccccc34)c3ccccc3n2)cc1OC", "1 (yes)"),
]

----------
system: SW-620 colon; experiment: NCI-60 one-dose screen, 48 h; conditions: 10 µM unless noted
About 83,000 compounds went through this panel and 20% of them were active in at least one assay; those are over-represented in the sample as a whole. Calls of active or inactive are those of the source. Rule for the calls: active = growth percent below 10; inactive = the rest.
Possible outcomes: active, inactive

# compound, assigned-category
data = [
    ("O=C(CCN1C(=O)/C(=C/c2ccccc2F)SC1=S)N1CCOCC1", "inactive"),
    ("N#Cc1c(-c2ccc(Cl)cc2)nc(SCc2ccc([N+](=O)[O-])cc2)nc1N1CCNCC1", "active"),
    ("CCOC(=O)c1c(NC(=O)c2cccc(C(F)(F)F)c2)sc2cc(O)ccc12", "inactive"),
    ("COc1ccc(C(=O)/C=C/c2ccc(OCc3ccc(Cl)cc3)c(OC)c2)cc1OC", "inactive"),
    ("CC(C)NC(=O)c1cc(-c2ccc(NC(=O)Nc3ccc(N4CCOCC4)c(C(F)(F)F)c3)cc2)nc2cccnc12", "inactive"),
    ("O=C(NNc1nc2cc(F)ccc2n2c(CN3CC4(COC4)C3)ccc12)c1cnccn1", "inactive"),
    ("Nc1c(C(=O)c2ccc(Br)cc2)oc2nc(-c3cnccn3)cc(-c3cccs3)c12", "inactive"),
    ("Cc1cc(C(NC(=O)CCCCCNc2cccc3c2C(=O)N(C2CCC(=O)NC2=O)C3=O)c2cccnc2)c(O)c2ncccc12 (centres undefined)", "inactive"),
    ("COc1cccc(COc2ccc(/C=C3/C(=O)Nc4cc(Cl)ccc43)cc2)c1", "inactive"),
]

src = PubChem BioAssay (NCI)
